Literature pKi values, system: D(3) dopamine receptor (Homo sapiens, UniProt P35462).
Sequence (P35462 whole entry): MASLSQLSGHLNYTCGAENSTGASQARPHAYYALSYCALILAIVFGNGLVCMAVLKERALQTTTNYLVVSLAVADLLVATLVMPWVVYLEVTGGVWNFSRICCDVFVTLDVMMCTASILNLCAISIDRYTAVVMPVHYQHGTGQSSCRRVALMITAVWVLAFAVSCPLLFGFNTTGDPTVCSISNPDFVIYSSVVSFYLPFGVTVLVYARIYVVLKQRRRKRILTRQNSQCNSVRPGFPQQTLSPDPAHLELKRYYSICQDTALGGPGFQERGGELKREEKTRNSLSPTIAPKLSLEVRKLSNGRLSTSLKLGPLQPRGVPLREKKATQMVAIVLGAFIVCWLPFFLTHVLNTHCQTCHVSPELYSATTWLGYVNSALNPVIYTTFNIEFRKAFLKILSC
pKi: −log10 of the molar value.
measure-name: pKi

>>> obs_value("CN(C)[C@H]1c2cc3ccn(S(=O)(=O)c4ccccc4)c3cc2[C@H]1CCO (relative stereo)")
6.40
>>> obs_value("COc1ccccc1N1CCC12CCN(CCCSc1nnc(-c3ccccc3)n1C)CC2")
6.77
>>> obs_value("O=C(NCCC(F)CN1CCN(c2cccc(Cl)c2Cl)CC1)c1ccc2ccccc2c1 (centres undefined)")
8.21
>>> obs_value("Cc1cc(C(=O)NCCCCN2CCc3ccc(OS(=O)(=O)C(F)(F)F)cc3C2)ccc1-c1ccccc1")
7.30

A. O=C(NCCC(O)CN1CCN(c2cccc(Cl)c2Cl)CC1)c1cnc2ccc(F)cc2c1 (centres undefined)
B. COc1ccccc1N1CCN(CCCc2cn(-c3ccn4nccc4c3)nn2)CC1
C. COc1ccccc1N1CCN(CCCCn2cc(-c3cccnc3)nn2)CC1
D. OC[C@@H]1[C@@H]2CN(Cc3ccccc3)[C@@H](c3ccccc3)[C@@H]2[C@H]1N1CCCC1
E. COc1cc2c(cc1O)CN(CCCCNC(=O)c1ccncc1)CC2
[in] Could you please sort these 5 entries by pKi from high to low? Use the labels to give the requested order.
[out] A, E, B, C, D
